- Tested on: DAN-G (Pancreatic Carcinoma)
- measurementProtocol: combination Emax (second highest fraction inhibited in the dose matrix, 72 h); higher = more inhibition; extreme values may be limits of the assay
Assignment: determine reported combination Emax for the given compounds.
One number for each entry.

A selection of reference data follows.
- compound: "CC1(C)CCC(CN2CCN(c3ccc(C(=O)NS(=O)(=O)c4ccc(NCC5CCOCC5)c([N+](=O)[O-])c4)c(Oc4cnc5[nH]ccc5c4)c3)CC2)=C(c2ccc(Cl)cc2)C1 [Venetoclax] + CCN(CCO)CCCOc1ccc2c(Nc3cc(CC(=O)Nc4cccc(F)c4)[nH]n3)ncnc2c1 [AZD2811] (first compound max 1 µM, 7x7, partner max 1 µM)"
  combination Emax: 0.21
- compound: "CCN(CCO)CCCOc1ccc2c(Nc3cc(CC(=O)Nc4cccc(F)c4)[nH]n3)ncnc2c1 [AZD2811] + C[C@@H]1COCCN1C2=NC(=NC(=C2)C3(CC3)[S@](=N)(=O)C)C4=C5C=CNC5=NC=C4 [AZD6738] (first compound max 1 µM, 7x7, partner max 10 µM)"
  combination Emax: 0.648

Lab note: next compound to report on.
What the record says about C=CCn1c(=O)c2cnc(Nc3ccc(N4CCN(C)CC4)cc3)nc2n1-c1cccc(C(C)(C)O)n1 [AZD1775] + O=C(c1cc(Cc2n[nH]c(=O)c3ccccc23)ccc1F)N1CCN(C(=O)C2CC2)CC1 [Olaparib] (first compound max 1 µM, partner max 10 µM) : combination Emax is 0.646
